Measured inhibition at 1 µM, listed per entry for reference.
# Measured Target: His6 tagged human recombinant FABP4 (Homo sapiens, UniProt P15090)
# Construct: purchased Cayman Chemicals 10009549
# Sequence (P15090 whole entry): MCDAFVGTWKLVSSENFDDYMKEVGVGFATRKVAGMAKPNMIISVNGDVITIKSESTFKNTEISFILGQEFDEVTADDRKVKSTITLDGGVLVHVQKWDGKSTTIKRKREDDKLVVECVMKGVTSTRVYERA
# Test Name: FABP4 TR-FRET assay: displacement of BODIPY FL C12 fatty acid
# Reported Conditions: 1 μM compound, triplicates, inhibition of BODIPY FL C12 binding
Readout Kind: inhibition at 1 µM (%)

{"Compound": "CCCC1CCc2c(c3cccc(C(=O)O)c3n2Cc2cccc(C#N)c2)C1 (stereo not shown)", "Readout Kind": "inhibition at 1 µM", "Reported": 46.8}
{"Compound": "CCCCCCC1CCCc2c(n(Cc3ccnc(OC)c3)c3c(C(=O)O)cccc23)C1 (stereo not shown)", "Readout Kind": "inhibition at 1 µM", "Reported": 78.1}
{"Compound": "CCCCCCC1CCCc2c(n(Cc3cccc(C(N)=O)n3)c3c(C(=O)O)cccc23)C1 (stereo not shown)", "Readout Kind": "inhibition at 1 µM", "Reported": 94}
{"Compound": "CCCCCCC1CCCc2c(n(Cc3cccc(C)c3)c3c(C(=O)O)cccc23)C1 (stereo not shown)", "Readout Kind": "inhibition at 1 µM", "Reported": 98.6}
{"Compound": "CCCCCCC1CCc2c(n(Cc3cccc(C(N)=O)c3)c3c(C(=O)O)cccc23)C1 (stereo not shown)", "Readout Kind": "inhibition at 1 µM", "Reported": 92.8}
{"Compound": "CCCCC1CCCc2c1c1cccc(C(=O)O)c1n2Cc1cccc(C(N)=O)c1 (stereo not shown)", "Readout Kind": "inhibition at 1 µM", "Reported": 43.3}
{"Compound": "CCC1CCCc2c(n(Cc3cccc(C(N)=O)c3)c3c(C(=O)O)cccc23)C1 (stereo not shown)", "Readout Kind": "inhibition at 1 µM", "Reported": 91.8}
{"Compound": "CCCC1CCCc2c1c1cccc(C(=O)O)c1n2Cc1cccc(C(N)=O)c1 (stereo not shown)", "Readout Kind": "inhibition at 1 µM", "Reported": 53.9}
{"Compound": "CCCCCCC1CCCc2c(n(Cc3cccnc3)c3c(C(=O)O)cccc23)C1 (stereo not shown)", "Readout Kind": "inhibition at 1 µM", "Reported": 105}
{"Compound": "CCCCCCC1CCCc2c(n(Cc3cccc(C#N)n3)c3c(C(=O)O)cccc23)C1 (stereo not shown)", "Readout Kind": "inhibition at 1 µM", "Reported": 93.5}

----------
# Measured Target: His6 tagged human recombinant FABP4 (Homo sapiens)
# Construct: purchased Cayman Chemicals 10009549
# Test Name: FABP4 TR-FRET assay: displacement of BODIPY FL C12 fatty acid
# Reported Conditions: 10 μM compound, triplicates, inhibition of BODIPY FL C12 binding
Measured inhibition at 10 µM, listed per entry for reference.

{"Molecule": "CCCC1CCCCc2c1c1cccc(C(=O)O)c1n2Cc1cccc(C#N)c1 (centres unmarked)", "inhibition at 10 µM / %": 97.5}
{"Molecule": "CCCCCCC1CCc2c(n(Cc3cccc(C(=O)O)c3)c3c(C(=O)O)cccc23)C1 (centres unmarked)", "inhibition at 10 µM / %": 73}
{"Molecule": "CCC1CCc2c(c3cccc(C(=O)O)c3n2Cc2cccc(C(N)=O)c2)C1 (centres unmarked)", "inhibition at 10 µM / %": 103}
{"Molecule": "CCCCCCC1CCCc2c(n(Cc3ccc(C#N)s3)c3c(C(=O)O)cccc23)C1 (centres unmarked)", "inhibition at 10 µM / %": 87.3}
{"Molecule": "CCCCC1CCCc2c1c1cccc(C(=O)O)c1n2Cc1cccc(C(N)=O)c1 (centres unmarked)", "inhibition at 10 µM / %": 83.4}
{"Molecule": "CCCCCCC1CCc2c(n(Cc3ccccc3C#N)c3c(C(=O)O)cccc23)C1 (centres unmarked)", "inhibition at 10 µM / %": 92.7}
{"Molecule": "CCCCCCC1CCCc2c(n(Cc3ccnc(OC)c3)c3c(C(=O)O)cccc23)C1 (centres unmarked)", "inhibition at 10 µM / %": 82.8}
{"Molecule": "CCCCC1CCCc2c(n(Cc3ccccc3C)c3c(C(=O)O)cccc23)C1 (centres unmarked)", "inhibition at 10 µM / %": 95.3}
{"Molecule": "CCCCCCCCC1CCCc2c(n(Cc3cccc(C(N)=O)c3)c3c(C(=O)O)cccc23)C1 (centres unmarked)", "inhibition at 10 µM / %": 93.6}
{"Molecule": "CCCCCCC1CCCc2c(n(Cc3ccc(C#N)o3)c3c(C(=O)O)cccc23)C1 (centres unmarked)", "inhibition at 10 µM / %": 90}
{"Molecule": "CCCCC1CCCc2c1n(Cc1cccc(C#N)c1)c1c(C(=O)O)cccc21 (centres unmarked)", "inhibition at 10 µM / %": 93.7}
{"Molecule": "CCCCC1CCCc2c(n(Cc3cccc(C#N)c3)c3c(C(=O)NCCO)cccc23)C1 (centres unmarked)", "inhibition at 10 µM / %": 42.7}
{"Molecule": "CCCCCCC1CCCc2c(n(Cc3cccc(C(F)(F)F)n3)c3c(C(=O)O)cccc23)C1 (centres unmarked)", "inhibition at 10 µM / %": 79.8}
{"Molecule": "CCCCCCC1CCc2c(n(Cc3ccccc3C(N)=O)c3c(C(=O)O)cccc23)C1 (centres unmarked)", "inhibition at 10 µM / %": 80.7}
{"Molecule": "CCC1CCCc2c1n(Cc1cccc(C#N)c1)c1c(C(=O)O)cccc21 (centres unmarked)", "inhibition at 10 µM / %": 87.6}
{"Molecule": "CCCCCCC1CCc2c(n(Cc3cccc(C#N)c3)c3c(C(=O)O)cccc23)C1 (centres unmarked)", "inhibition at 10 µM / %": 83.4}
{"Molecule": "CCCCCOC1CCCc2c1n(Cc1cccc(C(N)=O)c1)c1c(C(=O)O)cccc21 (centres unmarked)", "inhibition at 10 µM / %": 100}
{"Molecule": "CCC1CCc2c(n(Cc3cccc(C(N)=O)c3)c3c(C(=O)O)cccc23)C1 (centres unmarked)", "inhibition at 10 µM / %": 101}
{"Molecule": "CCC1CCCc2c1c1cccc(C(=O)O)c1n2Cc1cccc(C(N)=O)c1 (centres unmarked)", "inhibition at 10 µM / %": 102}
{"Molecule": "CCCCC1CCCc2c(n(Cc3ccccc3F)c3c(C(=O)O)cccc23)C1 (centres unmarked)", "inhibition at 10 µM / %": 88.1}
{"Molecule": "CCC1CCCc2c1c1cccc(C(=O)O)c1n2Cc1cccc(C(=O)O)c1 (centres unmarked)", "inhibition at 10 µM / %": 85.4}
{"Molecule": "CCCCC1CCc2c1n(Cc1cccc(C#N)c1)c1c(C(=O)O)cccc21 (centres unmarked)", "inhibition at 10 µM / %": 98.5}
{"Molecule": "CCCCCCC1CCCc2c(n(Cc3cccc(F)c3)c3c(C(=O)O)cccc23)C1 (centres unmarked)", "inhibition at 10 µM / %": 92.9}
{"Molecule": "CCCCCCC1CCCc2c(n(Cc3cccc(C#N)n3)c3c(C(=O)O)cccc23)C1 (centres unmarked)", "inhibition at 10 µM / %": 88.1}
{"Molecule": "CCCCC1CCCc2c(n(Cc3cccnc3)c3c(C(=O)O)cccc23)C1 (centres unmarked)", "inhibition at 10 µM / %": 83.8}
{"Molecule": "CCCCCC1Cc2c(n(Cc3cccc(C#N)c3)c3c(C(=O)O)cccc23)C1 (centres unmarked)", "inhibition at 10 µM / %": 78.3}
{"Molecule": "CCCC1CCCCc2c1c1cccc(C(=O)O)c1n2Cc1cccc(C(N)=O)c1 (centres unmarked)", "inhibition at 10 µM / %": 91.6}
{"Molecule": "CCCCC1Cc2c(n(Cc3cccc(C#N)c3)c3c(C(=O)O)cccc23)C1 (centres unmarked)", "inhibition at 10 µM / %": 85.1}
{"Molecule": "CCCCC1CCCc2c(n(Cc3cccc(O)c3)c3c(C(=O)O)cccc23)C1 (centres unmarked)", "inhibition at 10 µM / %": 96.1}
{"Molecule": "CCCCCCC1CCc2c(n(Cc3ccnc(OC)c3)c3c(C(=O)O)cccc23)C1 (centres unmarked)", "inhibition at 10 µM / %": 77.8}
{"Molecule": "CCCCC1CCCc2c(n(Cc3cccc(C#N)c3)c3c(C(=O)O)cccc23)C1 (centres unmarked)", "inhibition at 10 µM / %": 112}
{"Molecule": "CCCCCC1CCCCc2c1c1cccc(C(=O)O)c1n2Cc1cccc(C#N)c1 (centres unmarked)", "inhibition at 10 µM / %": 77}
{"Molecule": "CCCCCC1CCCc2c1c1cccc(C(=O)O)c1n2Cc1cccc(C#N)c1 (centres unmarked)", "inhibition at 10 µM / %": 73.7}
{"Molecule": "CCC1CCCc2c1n(Cc1cccc(C(=O)O)c1)c1c(C(=O)O)cccc21 (centres unmarked)", "inhibition at 10 µM / %": 78.5}
{"Molecule": "N#Cc1cccc(Cn2c3c(c4cccc(C(=O)O)c42)CCCC(CCc2ccccc2)C3)c1 (centres unmarked)", "inhibition at 10 µM / %": 94.5}
{"Molecule": "CCCC1CCCc2c1c1cccc(C(=O)O)c1n2Cc1cccc(C(N)=O)c1 (centres unmarked)", "inhibition at 10 µM / %": 90}
{"Molecule": "N#Cc1cccc(Cn2c3c(c4cccc(C(=O)O)c42)C(CCc2ccccc2)CCC3)c1 (centres unmarked)", "inhibition at 10 µM / %": 53.4}
{"Molecule": "CCC1CCCCc2c1c1cccc(C(=O)O)c1n2Cc1cccc(C(N)=O)c1 (centres unmarked)", "inhibition at 10 µM / %": 98}
{"Molecule": "CCCCCC1CCc2c(n(Cc3cccc(C(N)=O)c3)c3c(C(=O)O)cccc23)C1 (centres unmarked)", "inhibition at 10 µM / %": 67}
{"Molecule": "CCCCCCC1CCCc2c(n(Cc3cccc(Cl)c3)c3c(C(=O)O)cccc23)C1 (centres unmarked)", "inhibition at 10 µM / %": 45.9}
{"Molecule": "CCCCC1CCc2c1n(Cc1cccc(C(N)=O)c1)c1c(C(=O)O)cccc21 (centres unmarked)", "inhibition at 10 µM / %": 98.5}

Measured values drawn from patent US12084419B2 for this set.
